Source: ChEMBL document CHEMBL4680269

- Test system: Huh-7
- TEST METHOD NOTES: Antiproliferative activity against human HuH-7 cells assessed as reduction in cell viability incubated for 3 days by cell-titer glo assay
- Type: functional, cell-based
- CONDITIONS: Huh-7, 72 h
MEASUREMENT LABEL: pIC50
Please note pIC50 is a logarithmic value: minus log10 of concentration in mol/L. Answer with that number alone.

The recorded pIC50 for entry C[C@H](CC(=O)N1CCC(O)(Cn2cnc3c(-c4ccc(CN)cc4)n(C)nc3c2=O)CC1)c1ccccc1 equals 4.97

The recorded pIC50 for entry COC(=O)c1ccc(CN2CCC(O)(Cn3cnc4c(-c5ccc(CN)cc5)n(C)nc4c3=O)CC2)c(Cl)c1.O=C(O)C(F)(F)F.O=C(O)C(F)(F)F equals 5.44

---

- TARGET DESC: UniProt Q93009
- Sequence (Q93009 whole entry): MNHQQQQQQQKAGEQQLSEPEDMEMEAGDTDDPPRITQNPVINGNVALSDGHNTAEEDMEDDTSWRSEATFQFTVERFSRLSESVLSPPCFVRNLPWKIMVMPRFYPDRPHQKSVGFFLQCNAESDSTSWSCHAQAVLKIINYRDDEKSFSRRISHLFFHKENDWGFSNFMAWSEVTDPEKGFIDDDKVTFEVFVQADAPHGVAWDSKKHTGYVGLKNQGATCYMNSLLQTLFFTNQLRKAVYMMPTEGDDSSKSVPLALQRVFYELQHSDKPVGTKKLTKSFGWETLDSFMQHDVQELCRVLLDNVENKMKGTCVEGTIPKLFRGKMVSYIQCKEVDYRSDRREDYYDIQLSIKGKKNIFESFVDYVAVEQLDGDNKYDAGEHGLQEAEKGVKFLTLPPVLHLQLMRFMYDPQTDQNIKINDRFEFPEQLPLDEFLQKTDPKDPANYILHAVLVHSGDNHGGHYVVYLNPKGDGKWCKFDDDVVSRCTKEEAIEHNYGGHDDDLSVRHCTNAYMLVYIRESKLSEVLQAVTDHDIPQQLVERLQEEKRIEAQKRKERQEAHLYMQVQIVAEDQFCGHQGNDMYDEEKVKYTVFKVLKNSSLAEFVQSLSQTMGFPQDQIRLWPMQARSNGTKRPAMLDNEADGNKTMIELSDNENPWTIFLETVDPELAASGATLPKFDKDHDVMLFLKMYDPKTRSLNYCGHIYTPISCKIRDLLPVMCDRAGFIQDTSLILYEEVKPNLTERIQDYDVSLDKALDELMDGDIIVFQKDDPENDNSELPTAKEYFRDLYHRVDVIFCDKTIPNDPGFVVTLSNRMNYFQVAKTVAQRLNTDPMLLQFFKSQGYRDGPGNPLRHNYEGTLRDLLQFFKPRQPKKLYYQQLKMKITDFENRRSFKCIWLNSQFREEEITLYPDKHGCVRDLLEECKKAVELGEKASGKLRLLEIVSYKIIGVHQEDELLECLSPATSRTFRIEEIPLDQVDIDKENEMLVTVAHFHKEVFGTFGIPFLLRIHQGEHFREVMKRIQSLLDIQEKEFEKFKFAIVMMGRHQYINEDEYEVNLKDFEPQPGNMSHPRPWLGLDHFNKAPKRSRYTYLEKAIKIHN
- TEST METHOD NOTES: Inhibition of recombinant human N-terminal His6-tagged full length USP7 expressed in baculovirus infected Sf21 cells using monoubiquitinated ubiquitin-rhodamine as substrate incubated for 30 mins followed by Ub-Rho addition and measured after 2 hrs by spectrophotometry
MEASUREMENT LABEL: pIC50
Please note pIC50 is a logarithmic value: minus log10 of concentration in mol/L. Answer with that number alone.

The recorded pIC50 for entry O=c1c2cnn(-c3ccc(F)cc3)c2ncn1CC1(O)CCN(Cc2ccc([N+](=O)[O-])cc2)CC1 equals 5.05

The recorded pIC50 for entry O=c1c2cnn(-c3ccc(F)cc3)c2ncn1CC1(O)CCN(Cc2ccc(F)cc2Cl)CC1 equals 5.80

The recorded pIC50 for entry O=c1c2cnn(-c3ccc(F)cc3)c2ncn1CC1(O)CCN(Cc2ccc(Cl)cc2)CC1 equals 5.10

The recorded pIC50 for entry O=c1c2cnn(-c3ccc(F)cc3)c2ncn1CC1(O)CCN(Cc2ccccc2F)CC1 equals 5.01

The recorded pIC50 for entry COC(=O)c1ccc(CN2CCC(O)(Cn3cnc4c(cnn4-c4ccc(F)cc4)c3=O)CC2)c(Br)c1 equals 6.05

The recorded pIC50 for entry O=c1c2cnn(-c3ccc(F)cc3)c2ncn1CC1(O)CCN(Cc2ccc(Cl)cc2Cl)CC1 equals 5.48

The recorded pIC50 for entry N#Cc1cc(Cl)ccc1CN1CCC(O)(Cn2cnc3c(cnn3-c3ccc(F)cc3)c2=O)CC1 equals 4.94

The recorded pIC50 for entry COC(=O)c1ccc(CN2CCC(O)(Cn3cnc4c(-c5ccc(CNC(=O)OC(C)(C)C)cc5)n(C)nc4c3=O)CC2)c(Cl)c1 equals 6.68

The recorded pIC50 for entry O=c1c2cnn(-c3ccc(F)cc3)c2ncn1CC1(O)CCN(Cc2ccc(Br)cc2)CC1 equals 5.17

The recorded pIC50 for entry COC(=O)c1ccc(CN2CCC(O)(Cn3cnc4c(cnn4-c4ccc(F)cc4)c3=O)CC2)c(Cl)c1 equals 6.10

The recorded pIC50 for entry COC(=O)c1ccc(CN2CCC(O)(Cn3cnc4c(cnn4-c4ccc(F)cc4)c3=O)CC2)cc1 equals 5.35

---

- Test system: NB-4
- TEST METHOD NOTES: Antiproliferative activity against human NB-4 cells assessed as reduction in cell viability incubated for 3 days by cell-titer glo assay
- Type: functional, cell-based
- CONDITIONS: NB-4, 72 h
MEASUREMENT LABEL: IC50 (µM)
Reply with just the number (in µM).

The recorded IC50 for entry COC(=O)c1ccc(CN2CCC(O)(Cn3cnc4c(-c5ccc(CN)cc5)n(C)nc4c3=O)CC2)c(Cl)c1.O=C(O)C(F)(F)F.O=C(O)C(F)(F)F equals 5
